# SYSTEM_NAME: full-length recombinant H1 HA (A/New Caledonia/20/1999) on PER.C6 cells (influenza A virus (H1N1))
# PROTOCOL_TEXT: FACS, IgG 5 µg/ml, HA-expressing PER.C6 cells; untransfected MFI 3
METRIC: MFI (MFI)
// note: answer is a bare numeric in MFI

CR8018 (antibody, V domains shown) VH: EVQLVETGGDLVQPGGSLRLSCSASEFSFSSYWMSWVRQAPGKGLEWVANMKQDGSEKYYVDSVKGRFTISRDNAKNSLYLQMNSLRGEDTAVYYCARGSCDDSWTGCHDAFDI VL: QSALTQPASVSGSPGQSITISCTGTSSDVGGYNYVSWYQQHPGKAPKLMIYEVSHRPSGVSNRFSGSKSGSTASLTISGLQSEDEADYYCSSYTGEGPLGV ... 3

Now turn to the next binder.
Reported MFI for CR8015 (antibody, V domains shown) VH: QVQLQESGGDLVQPGGSLRLSCSASEFSFSSYWMSWVRQAPGKGLEWVANMKQDGSEKYYVDSVKGRFTISRDNAKNSLYLQMNSLRGEDTAVYYCARGSCDDSWTGCHDAFDI VL: VLTQPPSVSVAPGQTAKITCGGDNIGRKSVHWYQQKPGLAPVLVVNDNSDRPSGIPARFSGSNSGNTATLTISRVEAGDEADYYCHVWGSSRDHYV : what is it?
4

Entry source: patent US20130309248A1
